target: Concanavalin-A (Canavalia ensiformis); experiment: compounds binding concanavalin A lectin – biochemical, small-molecule microarray, Alexa647 label, 635 nm, artefact control for SMM control protein annotation, primary screen (AID 1127); details: ConA-A647 binding fluorescence, higher = more signal;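 note: z combines 667 nm emission intensity with signal-to-noise across three replicate slides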
Kind request: treat 0.04 as inclusive, so composite z-score at 0.04 or higher is fulfilled, anything lower is not fulfilled.

Exam item: decide whether the reported composite z-score for O=C1O[C@@H](c2ccccc2)[C@@H](c2ccccc2)N2[C@@H](c3ccccc3OCCO)[C@]3(C(=O)Nc4ccc(C#CC5(O)CCCCCC5)cc43)[C@@H](C(=O)NC[C@H](O)c3ccccc3)[C@H]12 is at least 0.04.
fulfilled

Moving on to C=CCN1C(=O)[C@@]2(O[C@@H](CCO)[C@H]([Si](C)(C)c3ccc(OC)cc3)[C@H]2C)c2cc(NC(C)=O)ccc21
fulfilled

Moving on to CN(C)CCCC[C@@H]1NC(=O)[C@@H]2C[C@H](C(=O)NCCCCCN)[C@H](c3ccc(O)cc3)N2C1=O
fulfilled

Moving on to C#C[C@H]1Oc2ccccc2S(=O)(=O)N2CCC[C@@H]12
not fulfilled

Moving on to CN(C)CCCC[C@@H]1NC(=O)[C@@H]2C[C@H](C(=O)NCCCCCCN)[C@H](c3ccc(O)cc3)N2C1=O
fulfilled

Moving on to O=C(NCC(O)CO)[C@@]1(Cc2ccccc2)N=C(c2ccc(OCCCO)cc2)O[C@H]1c1ccccc1 (some centres undefined)
fulfilled

Moving on to O=C(NCC(F)(F)F)[C@@H]1c2ccccc2C(=O)N(Cc2ccccc2)[C@H]1c1ccc(CO)cc1
not fulfilled

Moving on to CN(C)CCCCCCNC(=O)[C@@H]1C[C@@H]2C(=O)NCC(=O)N2[C@@H]1c1cccc(OCCO)c1
fulfilled

Moving on to COCCOC(=O)N1C(=O)[C@@]2(c3ccccc31)[C@H](c1ccc(O)cc1)N1[C@H](c3ccccc3)[C@H](c3ccccc3)OC(=O)[C@H]1[C@@H]2C(N)=O
not fulfilled

Moving on to C=C(C(=O)CC[C@H](OC(=O)c1cccnc1)c1ccccc1OCCO)C(C)C
fulfilled

Moving on to CO[C@H]1O[C@H](CO)[C@@H](OC(=O)Nc2ccc3c(c2)OCO3)[C@H](OC(=O)Nc2ccc3c(c2)OCO3)[C@H]1OC(=O)Nc1ccc2c(c1)OCO2
fulfilled

Moving on to COc1ccc(C(=O)Nc2cccc(CN3C(=O)[C@@]4(O[C@@H](CCn5cc([C@H](O)c6ccccc6)nn5)[C@H]([Si](C)(C)c5ccc(OC)cc5)[C@H]4C)c4ccccc43)c2)cc1
fulfilled

Moving on to CCN(CC)c1ccc(N2CC=CC34O[C@@H]5/C=C\CCCOC(=O)C5[C@H]3C(=O)N(CCCO)[C@@H]4C2=O)cc1 (some centres undefined)
not fulfilled

Moving on to COc1ccccc1CN1C(=O)c2ccccc2[C@](Cc2ccccc2I)(C(=O)NCc2ccccc2)[C@@H]1c1ccc(CO)cc1
not fulfilled

---

assay: probe aNog binding to arrayed compounds – biochemical, biotinylated probe, 635/667 nm fluorescence, primary screen (AID 1115); settings: small-molecule microarray, higher = more signal;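 note: probe is biotinylated aNog protein used at 0.15 µg/mL for 1 h at 4 C; z-score combines 667 nm fluorescence of each spot with its signal to noise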
Kind request: treat 0.6 as inclusive, so composite z-score at 0.6 or higher is 1.0, anything lower is 0.0.

Exam item: decide whether the reported composite z-score for Cc1ccc(N2C(=O)c3ccccc3[C@](C)(C(=O)NCCN3CCOCC3)[C@@H]2c2ccc(CO)cc2)nc1 is at least 0.6.
0.0

Moving on to CN(C)CCCC[C@@H]1NC(=O)[C@H]2C[C@@H](C(=O)NCCCCCNC(=O)CS)[C@@H](c3ccc(O)cc3)N2C1=O
0.0

Moving on to Cc1ccc(S(=O)(=O)N2CC(C(=O)O)=CCC2c2ccccc2)cc1 (configuration not stated)
0.0

Moving on to CC(C)C[C@@H]1NC(=O)[C@@H]2C[C@H](C(=O)NCCCCN(C)C)[C@H](c3ccc(O)cc3)N2C1=O
0.0

Moving on to CC1CC/C=C\[C@H]2OC34C=CCN(CCN5CCOCC5)C(=O)[C@H]3N(CCCCCO)C(=O)[C@@H]4C2C(=O)O1 (some centres not stated)
0.0

Moving on to CN1C(=O)C2C=CC(C(O)C3=C[C@H]4C[C@@H](C3)C4(C)C)N(Nc3ccc([N+](=O)[O-])cc3[N+](=O)[O-])C2C1=O (some centres not stated)
1.0

Moving on to O=C1C2C=CC(C(O)CCc3ccccc3)N(Nc3ccccc3)C2C(=O)N1c1ccccc1 (configuration not stated)
1.0

Moving on to Cc1ccc(S[C@]2(C(=O)NCC(F)(F)F)CC(=O)N(C3Cc4ccccc4C3)[C@@H]2c2ccc(CO)cc2I)cc1
1.0

Moving on to C[N+](C)(C)CCCCNC(=O)[C@H]1C[C@H]2C(=O)N3CCC[C@H]3C(=O)N2[C@H]1c1ccc(O)cc1
0.0

Moving on to O=C1OCCC/C=C\[C@H]2OC34C=CCN(Cn5nnc6ccccc65)C(=O)[C@H]3N(CCCO)C(=O)[C@@H]4C12 (some centres not stated)
0.0

Moving on to CN1C(=O)C2C=CC(C(O)C(C)(C)C)N(Nc3ccccc3)C2C1=O (configuration not stated)
1.0

Moving on to CN(C)CCCC[C@@H]1NC(=O)[C@@H]2C[C@H](C(=O)NCc3ccc(F)cc3)[C@H](c3cccc(OCCO)c3)N2C1=O
0.0

Moving on to CC1(C)C(=O)C(c2ccccc2)=C2CN3C(=O)N(CCc4ccccc4)C(=O)C3(Cc3ccccc3)C=C21 (configuration not stated)
0.0

Moving on to O=C1NC(=O)C2C1C=CC(C(O)c1cccs1)N2Nc1ccccn1 (configuration not stated)
0.0

Moving on to CCOC(=O)N1C(c2ccc(OCCCO)cc2)=NC(C(=O)OC)N1C(=O)OCC (configuration not stated)
0.0

Moving on to Cc1ccc(S[C@]2(C(=O)NCc3ccccc3)CC(=O)N(Cc3cc(C(F)(F)F)cc(C(F)(F)F)c3)[C@@H]2c2ccc(CO)cc2)cc1
0.0

Moving on to C=CC[C@@]1(C(=O)NCCN2CCOCC2)N=C(c2ccc(OCCCO)cc2)O[C@@H]1c1ccccc1CN=[N+]=[N-]
0.0

Moving on to O=C(CS)NCCCCCNC(=O)[C@H]1C[C@H]2C(=O)N[C@@H](Cc3ccccc3)C(=O)N2[C@H]1c1cccc(OCCO)c1
0.0

Moving on to CC(C)(C)OC(=O)CC[C@@]1(C(=O)NCC(O)CO)N=C(c2ccc(OCCCO)cc2)O[C@@H]1c1ccccc1 (some centres not stated)
0.0

Moving on to O=C1OCC=C[C@H]2OC34C=CCN(c5ccc(Cl)cc5)C(=O)[C@H]3N(CCCO)C(=O)[C@@H]4[C@@H]12 (some centres not stated)
0.0

Moving on to C=CCCN(CC#C[C@H]1Oc2ccccc2S(=O)(=O)N2CCC[C@@H]12)S(=O)(=O)c1ccc(C)cc1
0.0

Moving on to CCCC[C@@H]1C[C@H]1[C@@H](NC(=O)c1ccccc1)c1ccccc1
1.0

Moving on to COC(=O)[C@@]1(Cc2ccc(F)cc2)[C@H]2c3cc(C(=O)N4CCCC4)n(Cc4ccc(Cl)c(C(F)(F)F)c4)c3C[C@H]2CN1C(=O)c1ccccc1
1.0

Moving on to COc1ccc([Si](C)(C)[C@H]2[C@H](CC(=O)N3Cc4ccccc4C[C@H]3CO)O[C@@]3(C(=O)N(Cc4cccc(I)c4)c4ccccc43)[C@@H]2C)cc1
0.0

Moving on to Cc1ccc(C(C)CC(O)C2C=CC3C(=O)NC(=O)C3N2Nc2ccccn2)o1 (configuration not stated)
0.0

Moving on to C=C(C(=O)CC[C@@H](OC(=O)c1cccnc1)c1ccc(OCCO)cc1)C(C)C
0.0

Moving on to COC(=O)c1c2oc(c1C(=O)OC)C(=O)N[C@H](Cc1ccccc1)Cn1nncc1C1(CCCCC1)NC(=O)N[C@H](CO)CC2
0.0

Moving on to CO[C@H]1O[C@H](CO)[C@@H](OC(=O)Nc2cccc(F)c2)[C@H](OC(=O)Nc2ccccc2-c2ccccc2)[C@@H]1OC(=O)Nc1ccccc1-c1ccccc1
0.0

Moving on to Cc1ccc([C@H]2C(C(=O)O)=C[C@@H](C(C)C)N2S(=O)(=O)c2ccc(C)cc2)cc1
0.0

Moving on to C=CC[C@]1(C(=O)NCCN2CCOCC2)N=C(c2ccc(OCCCO)cc2)O[C@H]1c1ccccc1N=[N+]=[N-]
1.0

Moving on to CC[C@@H]1C=C(C(=O)O)[C@H](c2ccc(C(C)C)cc2)N1S(=O)(=O)c1ccc(C)cc1
0.0

Recorded values, source PubChem BioAssay.
